Hey, just so you know, these numbers are from PubChem BioAssay.

Record form. Attribute: inhibition. Fill in for each entry.
test: inhibitors of E-selectin induction by TNFa, primary screen, imaging, HUVEC, immunofluorescence, MLSMR starter and 10KST1 sets (AID 487); settings: HUVEC TNFalpha-induced E-selectin immunofluorescence imaging, at 2 µM; stronger effect = higher value;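 on inhibition: signal is fraction of cell area covered by stained E-selectin grains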
Just the number please, in %, no unit attached.

CC(Sc1ccc2ccccc2n1)C(=O)O (stereo not drawn) yielded inhibition of 23

`CCCc1cc(=O)oc2c(C)c(O)c(CN3CCCCC3)cc12` yielded inhibition of -23.3

`N#Cc1nc(COc2ccc(Br)cc2)oc1NCCN1CCOCC1` yielded inhibition of -38.7

###

assay: inhibitors of TNFa-induced NFkB p65 translocation, primary screen, imaging, HUVEC, MLSMR starter and 10KST1 sets (AID 438); conditions: HUVEC TNFa-induced p65 nuclear translocation; at 2 µM, stronger effect = higher value, 0% TNFa-plus-vehicle, 100% no-TNFa wells;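 further: compound added about 3h40 before a 20 min TNFalpha stimulation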;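 on inhibition: signal is the nuclear over cytoplasmic p65 intensity ratio per well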
Calls of active or inactive are those of the source.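 How the source made its calls: active means inhibition above 20% together with a positive visual image hit; inconclusive means visual image hit but inhibition not above 20%; inactive means no visual image hit.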
assay_readout: inhibition

`CCOC(=O)c1[nH]c(C)c(C(=O)NCc2ccccn2)c1C` yielded inhibition of -2.8% (inactive)

`Cc1[nH]nc(-c2ccc(O)cc2O)c1Oc1ccccc1` yielded inhibition of -2.3% (inactive)

`CCOc1cc(S(=O)(=O)Nc2ccccn2)ccc1F` yielded inhibition of 4.8% (inactive)

`CN1CCN(Cc2c(O)c(Cl)cc3c(-c4ccccc4)cc(=O)oc23)CC1` yielded inhibition of -8.3% (inactive)

CCC(C)Nc1nc2c(c(=O)n(C)c(=O)n2C)n1Cc1ccc(F)cc1 (stereo not given) yielded inhibition of 14.8% (inactive)

`Cc1onc(-c2ccccc2)c1C(=O)Nc1ccc(S(=O)(=O)N2CCCCC2)cc1` yielded inhibition of 7.8% (inactive)

`O=C(OCc1ccc2c(c1)OCO2)c1ccc(S(=O)(=O)N2CCCCC2)cc1` yielded inhibition of 4.4% (inactive)

`CC1(C)Cc2c(C#N)c(N3CCN(C(=O)c4ccco4)CC3)nc(-c3ccco3)c2CS1` yielded inhibition of -0.1% (inactive)

CCN(CC)CC(C)CNC(=O)CC(C(=O)N1CCc2ccccc21)n1ccnc1 (stereo not given) yielded inhibition of -10% (inactive)

Cc1ccc(N2C(=O)CC(Cn3nc(C)cc3C)C2=O)cc1 (stereo not given) yielded inhibition of -3.4% (inactive)

CCOc1ccc2nc(NC(NC(C)=O)(C(=O)OC)C(F)(F)F)sc2c1 (stereo not given) yielded inhibition of 1.9% (inactive)

`CN(C)S(=O)(=O)c1ccc(Oc2ccc(S(=O)(=O)N(C)C)cc2)cc1` yielded inhibition of -4.4% (inactive)

`CC(C)c1ccc(O)c(N)c1` yielded inhibition of -20.9% (inactive)

`CCn1c2ccccc2c2cc(Nc3cc(C)nc4ncnn34)ccc21` yielded inhibition of 8.5% (inactive)

Cc1ccc2[nH]c3c(c2c1)CN(C(=O)CN1CC(C)OC(C)C1)CC3 (stereo not given) yielded inhibition of -6.9% (inactive)

COc1ccc(/C(O)=C2/C(=O)C(=O)N(CCN3CCOCC3)C2c2cccnc2)cc1OC (stereo not given) yielded inhibition of -4.2% (inactive)

`CCCCc1nc2sc3c(c2c(=O)[nH]1)CCC3` yielded inhibition of 3.3% (inactive)

`O=C(Nc1ccccc1-c1ccccc1)NC1CCN(C(=O)N2CCOCC2)CC1` yielded inhibition of 0% (inactive)

COc1ccc(C2CC(=O)C3=C(C2)Nc2ccccc2N(C(=O)C2CC2)C3c2cccnc2)cc1OC (stereo not given) yielded inhibition of -10.9% (inactive)

`Cn1cccc1Cc1nnc(SCC(=O)Nc2ccc(F)cc2)n1-c1ccc(F)cc1` yielded inhibition of 1.4% (inactive)

`CCCc1cc(=O)oc2c(CN3CCCC3)c(O)ccc12` yielded inhibition of -10.8% (inactive)

`CC(=O)c1cnc2cc(-c3ccccc3)nn2c1C` yielded inhibition of 7.2% (inactive)

`COc1ccc(C(=O)c2oc3nc(C)cc(C)c3c2N)cc1` yielded inhibition of 3.1% (inactive)

O=C(NCC(=O)N(c1cnc2ccccc2c1)C(C(=O)NC1CCCC1)c1ccncc1)c1ccco1 (stereo not given) yielded inhibition of -7.1% (inactive)

`CCOC(=O)CNC(=O)CSc1nc(N(C)C)nc(N2CCOCC2)n1` yielded inhibition of 5.1% (inactive)

###

Record form. Attribute: cell count. Fill in for each entry.
test: inhibitors of TNFa-induced NFkB p65 translocation, primary screen, imaging, HUVEC, MLSMR starter and 10KST1 sets (AID 438); details: HUVEC TNFa-induced p65 nuclear translocation; measured here: nuclei count (cytotoxicity indicator), at 2.08 µM;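 further: compound added about 3h40 before a 20 min TNFalpha stimulation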
Give your answer as a number; write no unit.

`c1ccc(CSc2nnc(-c3cccs3)n2Cc2ccco2)cc1` yielded cell count of 601

`CCc1cc(=O)oc2cc(C)c(CN3CCCCC3)c(O)c12` yielded cell count of 612

`COc1cccc(OCc2nc3ccccc3[nH]2)c1` yielded cell count of 596

###

test: inhibitors of mutant huntingtin aggregation, primary screen, imaging, exon1htt(103Q)mCFP cells, high-content imaging (AID 483); conditions: exon1htt(103Q)mCFP cell line, aggregate imaging, at 2 µM; measured here: cell count, toxicity;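 further: compound exposure lasted 3 days before fixation; percent of the per-plate median nuclei count of sample wells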
Record form. Attribute: nuclei count. Fill in for each entry.
Just the number please, in %, no unit attached.

`Cc1coc2cc3oc(=O)c4c(c3cc12)CCC4` yielded nuclei count of 59.7

Cc1ccc(-c2nnn(CC(=O)N(Cc3ccco3)C(C(=O)NC(C)(C)C)c3cccs3)n2)o1 (stereo not given) yielded nuclei count of 85.8

NC(=O)C(Cc1ccccc1)NS(=O)(=O)c1ccc(N2CCCC2=O)cc1 (stereo not given) yielded nuclei count of 100

`CC(C)OC(=O)c1cccc(C(=O)O)n1` yielded nuclei count of 92.5

`COc1ccc(-c2nnc(SCC(=O)Nc3ccc(Cl)cc3)n2C)cc1` yielded nuclei count of 139

###

assay: inhibitors of E-selectin induction by TNFa, primary screen, imaging, HUVEC, immunofluorescence, MLSMR starter and 10KST1 sets (AID 487); settings: HUVEC TNFalpha-induced E-selectin immunofluorescence imaging, at 2 µM; measured here: cell number, toxicity;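 on nuclei count: 100% = median nuclei count of all wells on the same plate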
Record form. Attribute: nuclei count. Fill in for each entry.
Just the number please, in %, no unit attached.

`CC12CN3CC(=O)N4CC5(C)CN(CC(C)(C4)C5=O)C(=O)CN(C1)CC(C)(C3)C2=O` yielded nuclei count of 144

`CCOC(=O)N1CCC(c2cc(=O)n3[nH]cc(C(=O)OC)c3n2)CC1` yielded nuclei count of 103

`CCCC(=O)Nc1nnc(CC(=O)OCC)s1` yielded nuclei count of 113

`Cc1ccccc1-n1c(=O)cc(NCc2ccc3c(c2)OCO3)[nH]c1=O` yielded nuclei count of 95.2

`CC(C)COC(=O)N(C)c1ccc(C(O)(C(F)(F)F)C(F)(F)F)cc1` yielded nuclei count of 112

`Cn1c(SCC(=O)O)nnc1C1CCCCC1` yielded nuclei count of 105

###

assay: DUSP6 inhibitors restoring Erk phosphorylation by chemical complementation, primary imaging in DUSP6-transfected HeLa (AID 609); conditions: HeLa MKP-3 transfected, phospho-Erk imaging KS statistic; measured here: nuclear c-Myc green intensity z-score; at 10 µM; cells stimulated with TPA for 15 min
# cutoff 0.1 applies to z-score; >= gives T, < gives F

Incoming: Textbook exercise: given the entry `CCN(CC)c1nc(N2CCOCC2)c(C#N)c2c1CN(C)CC2` , state whether its z-score is greater than or equal to 0.1.
Outgoing: F

Incoming: Textbook exercise: given the entry COc1ccc(C(=O)OC(C)CN2CCN(C)CC2)cc1OC (centres undefined) , state whether its z-score is greater than or equal to 0.1.
Outgoing: T

Incoming: Textbook exercise: given the entry `COC(=O)c1ccccc1OCc1cccc(C)n1` , state whether its z-score is greater than or equal to 0.1.
Outgoing: T

Incoming: Textbook exercise: given the entry `Nc1ccc2oc(-c3ccccc3Cl)nc2c1` , state whether its z-score is greater than or equal to 0.1.
Outgoing: F

Incoming: Textbook exercise: given the entry `COC(=O)CC(=O)Cc1nc(N)nc(Nc2ccc(C)c(C)c2)n1` , state whether its z-score is greater than or equal to 0.1.
Outgoing: T

Incoming: Textbook exercise: given the entry `COc1cccc(C(=O)N2CCN(Cc3ccccn3)CC2)c1OC` , state whether its z-score is greater than or equal to 0.1.
Outgoing: T

Incoming: Textbook exercise: given the entry `COC(=O)Sc1nc(N2CCOCC2)c2c(c1C#N)CC(C)(C)OC2` , state whether its z-score is greater than or equal to 0.1.
Outgoing: F

Incoming: Textbook exercise: given the entry `C=C(C)CSc1nnc2n(C)c(=O)c3c4c(sc3n12)CCC4` , state whether its z-score is greater than or equal to 0.1.
Outgoing: F

Incoming: Textbook exercise: given the entry `O=C(c1ccccc1)c1cc(-c2ccccc2)on1` , state whether its z-score is greater than or equal to 0.1.
Outgoing: F

Incoming: Textbook exercise: given the entry `N#Cc1c(N)nc(SCC(=O)NCc2ccc3c(c2)OCO3)c(C#N)c1-c1cccs1` , state whether its z-score is greater than or equal to 0.1.
Outgoing: T

Incoming: Textbook exercise: given the entry CCN(CC)CCN1C(=O)C(=O)/C(=C(/O)c2c(C)[nH]c(C(=O)OC)c2C)C1c1cccc(OC)c1 (centres undefined) , state whether its z-score is greater than or equal to 0.1.
Outgoing: F

Incoming: Textbook exercise: given the entry `COc1cc(=O)[nH]c(=O)n1CC(=O)c1ccccc1` , state whether its z-score is greater than or equal to 0.1.
Outgoing: T

Incoming: Textbook exercise: given the entry `O=C(NCc1ccco1)c1ccc(=O)[nH]n1` , state whether its z-score is greater than or equal to 0.1.
Outgoing: F

Incoming: Textbook exercise: given the entry COc1ccc(/C(O)=C2/C(=O)C(=O)N(CCN3CCOCC3)C2c2cccnc2)cc1OC (centres undefined) , state whether its z-score is greater than or equal to 0.1.
Outgoing: T

Incoming: Textbook exercise: given the entry `O=C(COc1ccc(Cl)cc1)Nc1ccccc1CO` , state whether its z-score is greater than or equal to 0.1.
Outgoing: T

Incoming: Textbook exercise: given the entry CCc1ccc(NC(=O)CSC2=C(C#N)C(c3ccc4c(c3)OCO4)CC(=O)N2)cc1 (centres undefined) , state whether its z-score is greater than or equal to 0.1.
Outgoing: F

Incoming: Textbook exercise: given the entry Cc1cc(C)n(CC2CC(=O)N(c3ccc(C)c(Cl)c3)C2=O)n1 (centres undefined) , state whether its z-score is greater than or equal to 0.1.
Outgoing: F

Incoming: Textbook exercise: given the entry COCc1[nH]nc2c1C(c1sccc1C)C(C#N)=C(N)O2 (centres undefined) , state whether its z-score is greater than or equal to 0.1.
Outgoing: F

Incoming: Textbook exercise: given the entry `CCCCSc1nnc2n(CCc3ccccc3)c(=O)c3c4c(sc3n12)COC(C)(C)C4` , state whether its z-score is greater than or equal to 0.1.
Outgoing: F

Incoming: Textbook exercise: given the entry `C=CCN=C(C)C1=C(O)CCC1=O` , state whether its z-score is greater than or equal to 0.1.
Outgoing: T

Incoming: Textbook exercise: given the entry C=CCN(CC=C)c1nc2ccccc2nc1C(C#N)C(=O)OC(C)C (centres undefined) , state whether its z-score is greater than or equal to 0.1.
Outgoing: F

Incoming: Textbook exercise: given the entry `O=c1c2c3c(sc2nc2n1CCCS2)CCCC3` , state whether its z-score is greater than or equal to 0.1.
Outgoing: F

Incoming: Textbook exercise: given the entry `Cc1nc(SCC(=O)Nc2ccc3c(c2)OCO3)c(C#N)c2c1CCCC2` , state whether its z-score is greater than or equal to 0.1.
Outgoing: F

Incoming: Textbook exercise: given the entry `Cc1cc(C)n(CC(=O)c2ccccc2)c(=O)c1C#N` , state whether its z-score is greater than or equal to 0.1.
Outgoing: T

Incoming: Textbook exercise: given the entry `Cc1cc(=O)n2[nH]c(N3C(=O)CCC3=O)nc2n1` , state whether its z-score is greater than or equal to 0.1.
Outgoing: F

Incoming: Textbook exercise: given the entry COc1ccc(C2C(C(C)=O)=C(O)C(=O)N2c2nccs2)cc1OC (centres undefined) , state whether its z-score is greater than or equal to 0.1.
Outgoing: F

Incoming: Textbook exercise: given the entry `COC(=O)CSc1nc2c(c(=O)n(C)c(=O)n2C)n1CCC(C)C` , state whether its z-score is greater than or equal to 0.1.
Outgoing: T

Incoming: Textbook exercise: given the entry Cc1cc(=O)oc(C)c1C(=O)NCC(C)NC(=O)c1c(C)cc(=O)oc1C (centres undefined) , state whether its z-score is greater than or equal to 0.1.
Outgoing: F

Incoming: Textbook exercise: given the entry O=C1CC(NCc2ccncc2)C(=O)N1c1ccc(Cl)cc1 (centres undefined) , state whether its z-score is greater than or equal to 0.1.
Outgoing: F

Incoming: Textbook exercise: given the entry `COc1cccc(CNc2ncc(Br)cc2Br)c1O` , state whether its z-score is greater than or equal to 0.1.
Outgoing: T

Incoming: Textbook exercise: given the entry CCC(=NC(CC)CO)C1=C(O)CC(C)(C)CC1=O (centres undefined) , state whether its z-score is greater than or equal to 0.1.
Outgoing: F

Incoming: Textbook exercise: given the entry CCCCOc1ccc(C(=O)N2CCCC2C(=O)O)cc1 (centres undefined) , state whether its z-score is greater than or equal to 0.1.
Outgoing: T

Incoming: Textbook exercise: given the entry `CCCNc1ncnc2c1cnn2-c1ccc(OC)cc1` , state whether its z-score is greater than or equal to 0.1.
Outgoing: F

Incoming: Textbook exercise: given the entry C#CC1CN(Cc2ccccc2)CC(C#C)N1C (centres undefined) , state whether its z-score is greater than or equal to 0.1.
Outgoing: F

Incoming: Textbook exercise: given the entry `CC1(C)Cc2c(c(N3CCCCC3)[nH]c(=S)c2C#N)CS1` , state whether its z-score is greater than or equal to 0.1.
Outgoing: F

Incoming: Textbook exercise: given the entry `Cn1c(=O)c2c(nc(NCc3ccc4c(c3)OCO4)n2Cc2ccccc2)n(C)c1=O` , state whether its z-score is greater than or equal to 0.1.
Outgoing: F

Incoming: Textbook exercise: given the entry `CCNc1sc(C(=O)c2cccs2)c(N)c1C#N` , state whether its z-score is greater than or equal to 0.1.
Outgoing: F

Incoming: Textbook exercise: given the entry `Nc1nnnn1/N=C/c1cccs1` , state whether its z-score is greater than or equal to 0.1.
Outgoing: F
